Values from ChEMBL document CHEMBL3045165

Answer each item with its documented IC50.
target: UniProtKB P22303; test: Inhibition of AChE (unknown origin) using acetylthiocholine chloride as substrate after 15 min by Ellman's method
Sequence (P22303 whole entry): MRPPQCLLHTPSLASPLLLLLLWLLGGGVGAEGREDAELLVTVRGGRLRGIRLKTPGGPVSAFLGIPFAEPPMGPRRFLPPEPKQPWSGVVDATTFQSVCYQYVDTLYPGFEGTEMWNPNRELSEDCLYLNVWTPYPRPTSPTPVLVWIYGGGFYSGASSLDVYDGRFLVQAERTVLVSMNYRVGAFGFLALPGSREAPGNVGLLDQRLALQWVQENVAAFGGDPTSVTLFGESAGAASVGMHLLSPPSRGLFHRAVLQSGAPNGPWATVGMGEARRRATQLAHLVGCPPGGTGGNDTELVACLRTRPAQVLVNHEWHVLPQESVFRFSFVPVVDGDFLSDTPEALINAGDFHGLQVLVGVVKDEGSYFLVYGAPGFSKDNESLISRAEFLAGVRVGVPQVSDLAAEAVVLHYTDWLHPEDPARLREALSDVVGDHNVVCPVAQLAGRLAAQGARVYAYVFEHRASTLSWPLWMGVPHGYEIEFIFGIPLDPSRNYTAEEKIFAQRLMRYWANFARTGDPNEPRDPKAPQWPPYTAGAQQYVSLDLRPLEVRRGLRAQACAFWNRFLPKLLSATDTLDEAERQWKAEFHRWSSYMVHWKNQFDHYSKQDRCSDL
I only need the number, in µM, no unit after it.

Exercise: Lab request: please report IC50 under test system UniProtKB P22303 for CCOC(=O)C1=C(C)Oc2nc3c(c(N)c2[C@H]1c1cccc(OC)c1)CCCCC3
Key: 12.9

Exercise: Next entry: CCOC(=O)C1=C(C)Oc2nc3c(c(N)c2[C@H]1c1ccc(C)cc1)CCCC3
Key: 1.82

Exercise: Next entry: CCOC(=O)C1=C(C)Oc2nc3c(c(N)c2[C@H]1c1cccc(OC)c1)CCC3
Key: 24

Exercise: Next entry: CCOC(=O)c1c(C)nc2nc3c(c(N)c2c1-c1ccc(Cl)cc1)CCCCC3
Key: 19.1
